The reported measurements were obtained from patent EP3807270B1.

Molecular target: hTLR9 (Homo sapiens)
Sequence (Q9NR96 26-1032): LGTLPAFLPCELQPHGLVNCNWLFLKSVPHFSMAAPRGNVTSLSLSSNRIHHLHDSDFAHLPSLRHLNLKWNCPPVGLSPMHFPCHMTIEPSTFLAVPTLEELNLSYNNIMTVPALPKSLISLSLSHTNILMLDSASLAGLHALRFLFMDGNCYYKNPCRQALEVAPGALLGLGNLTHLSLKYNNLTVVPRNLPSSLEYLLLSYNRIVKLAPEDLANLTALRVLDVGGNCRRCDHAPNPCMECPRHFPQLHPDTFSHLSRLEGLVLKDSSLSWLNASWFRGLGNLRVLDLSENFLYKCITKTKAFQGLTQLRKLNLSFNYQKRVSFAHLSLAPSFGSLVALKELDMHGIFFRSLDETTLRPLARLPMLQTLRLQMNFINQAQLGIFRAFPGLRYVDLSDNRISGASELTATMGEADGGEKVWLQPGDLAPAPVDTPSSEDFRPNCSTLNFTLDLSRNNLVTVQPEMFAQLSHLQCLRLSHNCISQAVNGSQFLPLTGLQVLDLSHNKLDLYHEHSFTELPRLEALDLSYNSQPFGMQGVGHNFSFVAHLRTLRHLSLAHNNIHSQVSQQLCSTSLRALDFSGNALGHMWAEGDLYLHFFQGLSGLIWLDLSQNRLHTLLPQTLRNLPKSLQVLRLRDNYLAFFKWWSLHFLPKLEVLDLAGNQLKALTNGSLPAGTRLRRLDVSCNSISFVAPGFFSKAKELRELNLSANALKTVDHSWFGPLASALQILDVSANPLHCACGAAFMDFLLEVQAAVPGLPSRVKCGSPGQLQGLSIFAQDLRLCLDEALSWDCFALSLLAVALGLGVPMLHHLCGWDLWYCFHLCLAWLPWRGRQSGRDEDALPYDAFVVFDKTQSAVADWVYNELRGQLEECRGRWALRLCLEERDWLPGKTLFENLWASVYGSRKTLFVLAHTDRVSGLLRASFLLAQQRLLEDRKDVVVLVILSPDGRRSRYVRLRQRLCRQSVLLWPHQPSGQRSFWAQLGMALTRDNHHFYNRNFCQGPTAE
Test: HEK293-Blue-hTLR-9 cells assay (SEAP reporter, ODN2006 stimulation)
Format: cell-based
Design: host or cells: HEK293 (HEK-Blue)
Conditions: HEK293-Blue-hTLR9 cells, ODN2006, 20 hrs; read-out: HEK/hTLR9 IC50
Procedure: A stable HEK293-Blue-hTLR-9 cell line was purchased from InvivoGen (Cat.#: hkb-htlr9, San Diego, California, USA). These cells were originally designed for studying the stimulation of human TLR9 by monitoring the activation of NF-κB. […] The cell culture supernatant SEAP reporter activity was determined using QUANTI-Blue™ kit (Cat.#: rep-qb 1, Invivogen, San Diego, California, USA) at a wavelength of 640 nm, a detection medium that turns purple or blue in the presence of alkaline phosphatase. […]
ENDPOINT: IC50 (nM)

// below: answered compounds
[
  {
    "COMPOUND": "C[C@@H]1CN(c2ccc(C#N)c3ncccc23)C[C@H](CN2CCN(c3ccc4c(c3)C(O)CNC4)CC2)O1 (some centres unmarked)",
    "UNIT_STRING": "nM",
    "IC50": 45
  },
  {
    "COMPOUND": "C[C@@H]1CN(c2ccc(C#N)c3ncccc23)C[C@H](CN2CCN(c3ccc4c(c3)C(O)CN(C)C4)CC2)O1 (some centres unmarked)",
    "UNIT_STRING": "nM",
    "IC50": 133
  },
  {
    "COMPOUND": "C[C@@H]1CN(c2ccc(C#N)c3ncccc23)C[C@H](CN2CCN(c3cc4c(cn3)CCNC4)CC2)O1",
    "UNIT_STRING": "nM",
    "IC50": 72
  },
  {
    "COMPOUND": "COc1ccc(N2CCN(C[C@H]3CN(c4ccc(C#N)c5ncccc45)C[C@@H](C)O3)CC2)cc1 [Example R1, reference compound]",
    "UNIT_STRING": "nM",
    "IC50": 6620
  },
  {
    "COMPOUND": "C[C@@H]1CN(c2ccc(C#N)c3ncccc23)C[C@H](CN2CCC(Nc3ncc4c(n3)CNC4)C2)O1 (some centres unmarked)",
    "UNIT_STRING": "nM",
    "IC50": 99
  }
]

P = C[C@@H]1CN(c2ccc(C#N)c3ncccc23)C[C@H](CN2CCN(c3ccc4c(c3)CNC4)CC2CO)O1 (some centres unmarked)
Q = C[C@@H]1CN(c2ccc(C#N)c3ncccc23)C[C@H](CN2CCN(c3cnc4c(c3)CNCC4)C(C)(C)C2)O1
R = C[C@@H]1CN(c2ccc(C#N)c3ncccc23)C[C@H](CN2CC3(C2)CN(c2cc4c(cn2)CCNC4)CCO3)O1
# sort list by recorded IC50, greatest to least Thanks in advance for listing the labels in the requested order. Q, P, R
